Data origin, for the record: PubChem BioAssay (NCI)

Reported TGI values are given for each entry in this list.
Tested on: A498 renal
Test: NCI tumour cell line growth inhibition, 48 h

Reference set (2 entries):
NC(CCCC(N)P(=O)(O)c1ccccc1)P(=O)(O)c1ccccc1 (stereo not drawn): > 261 µM
CCOC(=O)C1=CNC(C(=O)OCC)C1c1cccn1-c1ccc(Cl)cc1[N+](=O)[O-] (stereo not drawn): > 100 µM

Case Nn1c(COc2cccc(OCc3n[nH]c(=S)n3N)c2)n[nH]c1=S , A498 renal, TGI recorded as > 100 µM

* * *

Tested on: CAKI-1 renal
Test: NCI tumour cell line growth inhibition, 48 h
Readout: TGI

Some compounds with known TGI results, for comparison:
COc1ccc(-c2cc(=O)c3cc4c(cc3[nH]2)OCO4)cc1OC: > 100 µM
CCOP(=O)(OCC)/C(C#N)=C/c1cn(C)cn1: > 100 µM
CCCSc1ccc2[nH]c(N3C(=O)/C(=C/c4ccco4)N=C3c3ccccc3)cc2c1: > 50 µM

// recorded TGI for COc1cccc(-c2cc(=O)c3cc(OC)ccc3[nH]2)c1 : > 100 µM

* * *

Tested on: 786-0 renal
Experiment: NCI tumour cell line growth inhibition, 48 h
Readout: TGI (µM)
Your answer should be a plain number; it is taken to be in µM.

// worked examples, TGI included
COC(=O)c1c2c(c[n+]([O-])c1C)C(=O)C=CC2=O: 6.39
Nc1ccc(C2=NN(c3ccccc3)C(c3ccc(Cl)cc3)C2)cc1 (centres undefined): 4.22

Next, consider the following compound.
Record summary for C#Cc1cccc(N2C(=O)CCC2=O)c1 : reported TGI = 40.5

* * *

Recorded TGI, one value per entry.
Test system: OVCAR-5 ovarian
Assay: NCI tumour cell line growth inhibition, 48 h
Give the value, in units of µM, as a plain number.

Example compounds with recorded TGI:
Cc1nc(SCC(=O)Nc2nc(-c3ccc(Cl)cc3)cs2)n(Nc2ccccc2)c1C: 13.5
C=C1C(=O)O[C@H]2[C@H]1CC/C(COC(=O)CSCCSCC(=O)OC/C1=C/CC[C@@]3(C)O[C@H]3[C@H]3OC(=O)C(=C)[C@@H]3CC1)=C\CC[C@@]1(C)O[C@@H]21: 4.58

Proceeding to the next compound to report its TGI.
Reported TGI ( O=C(/C=C/c1ccc(O)c(O)c1)OCCCc1ccccc1 ) = 37.3

* * *

Test system: SNB-75 CNS
Test: NCI tumour cell line growth inhibition, 48 h
Where a SMILES comes first, the peptide text is derived from it. The star is where a group is joined. Boc = CC(C)(C)OC(=O)*
Readout: TGI

Documented TGI of CC(C)=CC(=O)C/C(=N\NC(N)=S)C(=O)Nc1ccc(Cl)cc1 : > 100 µM

The measured TGI associated with Nc1ccccc1C(=O)CC1OC(=O)c2ccccc21 (configuration not stated) reads > 100 µM

TGI for COC(=O)[C@@H](C)C[C@H](Cc1ccccc1)NC(=O)c1csc(CC[C@H](C(C)C)N(C)C(=O)[C@@H](NC(=O)[C@H]2CCCCN2C)C(C)C)n1 is 9.2 µM

The measured TGI associated with OC(c1cc2ccccc2o1)c1cc2ccccc2s1 (configuration not stated) reads > 10 µM

compound CC(=O)N=C1N(/C=C2\C(=O)Oc3ccccc3C2=O)C(=O)/C(=C/c2ccc(OC(C)=O)cc2)N1C , TGI observed: > 100 µM

Kindly note the recorded TGI for Oc1[nH]c2ccccc2c1N=Nc1ccccn1 , which is 86.6 µM

Kindly note the recorded TGI for [Cl-].[O-]/N=C(\c1ccccc1)c1ccccn1.[O-]/N=C(\c1ccccc1)c1ccccn1.[O-]/N=C(\c1ccccc1)c1ccccn1.[Sm+3] , which is 31.3 µM

Looking up N[C@H](C(=O)O)[C@H]1ON=C(Cl)[C@@H]1O , I see its TGI listed as > 364 µM

Lab book: TGI of CC(C)CCC(=O)c1ccoc1 noted as > 100 µM

Just so you know, measured TGI for COC(=O)C(Cc1c[nH]c2ccccc12)NC(=O)C(Cc1c[nH]c2ccccc12)NC(=O)C(Cc1c[nH]c2ccccc12)NC(=O)C(Cc1c[nH]c2ccccc12)NC(=O)C(Cc1c[nH]c2ccccc12)NC(=O)C(Cc1c[nH]c2ccccc12)NC(=O)OC(C)(C)C (configuration not stated) (Boc-WWWWWW-OMe; configuration not given here) came out at > 100 µM

Field TGI (entry CCOC(=O)c1ccc(Nc2c3c(nc4ccccc24)CCCC3)cc1 ) reads > 54.8 µM

GET /value?item= COC(=O)[C@@H]1[C@@H](c2cccc(Cl)c2)[C@H](C(=O)OC)C2(C[C@@]1(C)O)NCCS2 (some centres not stated) &field=TGI returns > 100 µM

For record BrCCCCCOc1ccc(-c2c3ccccc3c(-c3ccc(OCCCCCBr)cc3)c3ccccc23)cc1 the listed TGI is > 100 µM

// field: TGI; key: COC(=O)N(C(=O)OC)C(C(=O)O)C(C)C (configuration not stated) ; value = > 100 µM

Briefly, TGI measured for COc1ccc(C(=O)/C=C/c2ccc(C)cc2)cc1OC : 21.3 µM

Lab note: measured TGI of [Cl][Hg][Cl] was 34.8 µM

According to the records, this compound CCCCCCCCOC1C(O)C(O)C(O)C(O)C12CO2 (configuration not stated) displays TGI of > 100 µM
